Experimental system: DDR2 (Homo sapiens)
Sequence (Q16832 22-855): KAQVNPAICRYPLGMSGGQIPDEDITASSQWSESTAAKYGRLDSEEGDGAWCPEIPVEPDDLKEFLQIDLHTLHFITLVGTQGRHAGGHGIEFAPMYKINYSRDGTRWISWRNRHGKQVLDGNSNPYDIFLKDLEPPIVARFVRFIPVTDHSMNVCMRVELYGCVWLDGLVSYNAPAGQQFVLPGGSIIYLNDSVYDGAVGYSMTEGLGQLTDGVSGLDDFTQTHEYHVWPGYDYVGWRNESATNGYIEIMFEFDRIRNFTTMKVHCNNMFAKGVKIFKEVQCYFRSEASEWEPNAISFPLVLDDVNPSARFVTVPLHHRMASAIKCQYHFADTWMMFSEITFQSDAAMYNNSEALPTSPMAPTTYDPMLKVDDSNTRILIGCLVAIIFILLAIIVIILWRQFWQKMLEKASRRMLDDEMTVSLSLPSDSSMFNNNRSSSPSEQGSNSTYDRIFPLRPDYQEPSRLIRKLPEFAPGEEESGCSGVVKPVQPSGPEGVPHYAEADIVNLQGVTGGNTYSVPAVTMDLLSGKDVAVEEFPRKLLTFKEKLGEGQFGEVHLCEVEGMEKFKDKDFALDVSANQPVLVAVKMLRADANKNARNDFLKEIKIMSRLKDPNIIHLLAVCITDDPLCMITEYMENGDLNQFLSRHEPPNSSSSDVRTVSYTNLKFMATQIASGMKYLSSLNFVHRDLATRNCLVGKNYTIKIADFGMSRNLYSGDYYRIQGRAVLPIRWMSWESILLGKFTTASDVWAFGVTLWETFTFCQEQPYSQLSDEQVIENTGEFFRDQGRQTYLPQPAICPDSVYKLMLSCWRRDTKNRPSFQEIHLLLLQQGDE
Assay readout: IC50

Task: IC50 lookup needed for O=S(=O)(c1ccc(C(O)CO)c(C(F)(F)F)c1)N1CCc2cc(C3CC3NCC3CCNCC3)ccc21 (stereo not shown) [LTM-1] , thanks.
Output: > 10 µM

* * *

Experimental system: EPHB2 (Homo sapiens)
Sequence (P29323 19-1055): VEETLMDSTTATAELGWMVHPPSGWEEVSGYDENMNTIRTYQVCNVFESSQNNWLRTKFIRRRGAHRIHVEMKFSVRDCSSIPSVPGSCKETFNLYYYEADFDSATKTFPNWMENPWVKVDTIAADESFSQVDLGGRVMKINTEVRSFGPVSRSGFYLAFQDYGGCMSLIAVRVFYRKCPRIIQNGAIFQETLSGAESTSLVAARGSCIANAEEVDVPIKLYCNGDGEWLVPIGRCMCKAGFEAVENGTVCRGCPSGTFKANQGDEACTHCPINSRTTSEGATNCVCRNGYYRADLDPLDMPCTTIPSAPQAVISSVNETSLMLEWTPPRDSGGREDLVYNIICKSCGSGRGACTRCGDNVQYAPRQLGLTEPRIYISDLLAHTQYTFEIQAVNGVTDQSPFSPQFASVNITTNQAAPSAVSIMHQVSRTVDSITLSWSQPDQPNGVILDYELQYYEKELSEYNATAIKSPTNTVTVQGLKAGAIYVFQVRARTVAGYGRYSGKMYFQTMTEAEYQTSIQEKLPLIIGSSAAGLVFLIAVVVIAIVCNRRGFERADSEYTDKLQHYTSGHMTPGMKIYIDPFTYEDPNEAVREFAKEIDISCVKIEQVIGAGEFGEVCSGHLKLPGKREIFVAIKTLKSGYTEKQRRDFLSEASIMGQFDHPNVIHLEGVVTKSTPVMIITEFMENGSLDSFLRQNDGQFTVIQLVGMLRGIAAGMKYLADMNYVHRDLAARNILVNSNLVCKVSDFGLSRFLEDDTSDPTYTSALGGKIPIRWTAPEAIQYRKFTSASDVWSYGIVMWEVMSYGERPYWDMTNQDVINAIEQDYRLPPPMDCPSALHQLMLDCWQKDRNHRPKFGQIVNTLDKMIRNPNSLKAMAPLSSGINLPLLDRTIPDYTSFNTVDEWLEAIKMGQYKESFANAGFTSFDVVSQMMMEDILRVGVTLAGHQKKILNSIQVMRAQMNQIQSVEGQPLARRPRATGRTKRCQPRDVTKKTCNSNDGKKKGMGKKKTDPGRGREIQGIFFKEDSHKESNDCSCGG
Assay readout: IC50

Task: IC50 lookup needed for O=S(=O)(c1ccc(C(O)CO)c(C(F)(F)F)c1)N1CCc2cc(C3CC3NCC3CCNCC3)ccc21 (stereo not shown) , thanks.
Output: > 10 µM

Recorded values, source paper PMC11903733.
